Listing of entries alongside the reported pIC50.
Target: human CXCR3 (N-delta 4) (Homo sapiens, UniProt P49682)
Construct: CD8 leader (N); Flag tag; expressed in transfected cells; membranes
Experiment: Human CXCR3 (N-delta 4) Scintillation Proximity Assay (SPA), [125I] IP-10 binding
Settings: IC50 rating; [125I] IP-10 displacement, Ba/F3-hCXCR3 (N-delta 4) membranes
pIC50: −log10 of the molar value.
MEASURE: pIC50

| COMPOUND | MEASURED |
| --- | --- |
| CC[C@H]1CN(c2ncc(-c3nnc(C(C)(C)OC(C)=O)o3)cc2Cl)CCN1C1CCN(Cc2ccc(Cl)cc2F)CC1 | < 7.00 |
| CC[C@H]1CN(c2ncc(-c3ncc[nH]3)cc2Cl)CCN1C1CCN(C(=O)c2ccc(Cl)cc2O)CC1 | > 7.60 |
| CC[C@H]1CN(c2ncc(C3NC(=O)NC3=O)cc2Cl)CCN1C1CCN(Cc2ccc(Cl)cc2)CC1 (some centres unmarked) | 7.00 to 7.60 |
| CC[C@H]1CN(c2ncc(-c3ncc[nH]3)cc2Cl)CCN1C1CCN(Cc2ccc(Cl)cc2)CC1 | > 7.60 |
| CC[C@H]1CN(c2ncc(C3=NCCN3)cc2Cl)CCN1C1CCN(Cc2ccc(Cl)cc2C(=O)NCCO)CC1 | > 7.60 |
| CC[C@H]1CN(c2ncc(-c3ncc[nH]3)cc2Cl)CCN1C1CCN([C@H](C(=O)NCC2CC2)c2ccc(Cl)cc2)CC1 | < 7.00 |
| C[C@H]1CN(c2ncc(-c3nc4ccccc4[nH]3)cc2Cl)CCN1C1CCN(Cc2ccc(Cl)cc2)CC1 | 7.00 to 7.60 |
| CC[C@H]1CN(c2ncc(-c3ncc[nH]3)cc2Cl)CCN1C1CCN(Cc2ccc(-c3ccccc3)cc2)CC1 | > 7.60 |
| CC[C@H]1CN(c2ncc(-c3ncc[nH]3)cc2Cl)CCN1C1CCN(C(C)c2ccc(N3CCOCC3)cc2)CC1 (some centres unmarked) | < 7.00 |
| CC[C@H]1CN(c2ncc(-c3nnc(N)o3)cc2C)[C@H](C)CN1C1CCN(Cc2ccc(OC(F)(F)F)cc2)CC1 | > 7.60 |
| CC[C@H]1CN(c2ncc(C3=NCCN3)cc2Cl)CCN1C1CCN(C(=O)c2ccc(C#CC(C)(C)NC(=O)OC(C)(C)C)cc2)CC1 | 7.00 to 7.60 |
| CC[C@H]1CN(c2ncc(-c3nccn3C)cc2Cl)CCN1C1CCN(Cc2ccc(Cl)cc2F)CC1 | 7.00 to 7.60 |
| CC[C@H]1CN(c2ncc(-c3ncc[nH]3)cc2Cl)CCN1C1CCN(CCCCc2ccc(Cl)cc2)CC1 | 7.00 to 7.60 |
| CC[C@H]1CN(c2ncc(-c3nnc(C)o3)cc2Cl)CCN1C1CCN(C(=O)c2ccc(Br)cc2)CC1 | 7.00 to 7.60 |

* * *

IC50 values by entry
Target: human CXCR3 (N-delta 4) (Homo sapiens)
Construct: CD8 leader (N); Flag tag; expressed in transfected cells; membranes
Test: Human CXCR3 (N-delta 4) Scintillation Proximity Assay (SPA), [125I] IP-10 binding
Conditions: IC50 rating; [125I] IP-10 displacement, Ba/F3-hCXCR3 (N-delta 4) membranes

| COMPOUND | TARGET DESC | IC50 |
| --- | --- | --- |
| CC[C@H]1CN(c2ncc(-c3ncc[nH]3)cc2Cl)CCN1C1(C)CCN(C(CO)c2ccc(Cl)cc2)CC1 (some centres unmarked) | human CXCR3 (N-delta 4) (Homo sapiens) | < 25 nM |
| CC[C@H]1CN(c2ncc(-c3ncc[nH]3)cc2Cl)CCN1C1CCN(Cc2ccc(Cl)cc2C(=O)O)CC1 | human CXCR3 (N-delta 4) (Homo sapiens) | < 25 nM |
| CC[C@H]1CN(c2ncc(-c3ncc[nH]3)cc2Cl)CCN1C1CCN(C(=O)c2ccc(-n3ccc(C(F)(F)F)n3)cc2)CC1 | human CXCR3 (N-delta 4) (Homo sapiens) | > 100 nM |
| CC[C@H]1CN(c2ncc(-c3ncc[nH]3)cc2Cl)CCN1C1CCN(C(=O)c2ccc(C(C)=O)cc2)CC1 | human CXCR3 (N-delta 4) (Homo sapiens) | 25 to 100 nM |
| CC[C@H]1CN(c2ncc(-c3ncc[nH]3)cc2Cl)CCN1C1CCN(Cc2c(F)cc(F)cc2F)CC1 | human CXCR3 (N-delta 4) (Homo sapiens) | < 25 nM |
| CC[C@H]1CN(c2ncc(-c3nnc(CO)o3)cc2Cl)CCN1C1CCN(C(CO)c2ccc(Cl)cc2)CC1 (some centres unmarked) | human CXCR3 (N-delta 4) (Homo sapiens) | < 25 nM |
| CC[C@H]1CN(c2ncc(-c3ncc[nH]3)cc2Cl)CCN1C1CCN(Cc2ccc(Cl)cc2-c2n[nH]c(=O)o2)CC1 | human CXCR3 (N-delta 4) (Homo sapiens) | < 25 nM |
| CC[C@H]1CN(c2ncc(-c3ncc[nH]3)cc2Cl)CCN1C1(C)CCN(C(C(=O)OC)c2ccc(Cl)cc2)CC1 (some centres unmarked) | human CXCR3 (N-delta 4) (Homo sapiens) | 25 to 100 nM |
| CC[C@H]1CN(c2ncc(-c3ncc[nH]3)cc2Cl)CCN1C1CCN(C(=O)c2ccc(-c3cnco3)cc2)CC1 | human CXCR3 (N-delta 4) (Homo sapiens) | 25 to 100 nM |
| CC[C@H]1CN(c2ncc(-c3nccn3S(C)(=O)=O)cc2Cl)CCN1C1CCN(Cc2ccc(Cl)cc2F)CC1 | human CXCR3 (N-delta 4) (Homo sapiens) | 25 to 100 nM |
| CC[C@H]1CN(c2ncc(-c3ncc[nH]3)cc2Cl)CCN1C1CCN(C(=O)c2ccc(Cl)nc2N)CC1 | human CXCR3 (N-delta 4) (Homo sapiens) | < 25 nM |
| CC[C@H]1CN(c2ncc(-c3ncc[nH]3)cc2Cl)CCN1C1CCN(Cc2ccc(Cl)cc2-c2nnn[nH]2)CC1 | human CXCR3 (N-delta 4) (Homo sapiens) | < 25 nM |
| CC[C@H]1CN(c2ncc(C3=NCCN3)cc2Cl)CCN1C1CCN(Cc2ccc(OC(F)(F)F)cc2)CC1 | human CXCR3 (N-delta 4) (Homo sapiens) | < 25 nM |
| CC[C@H]1CN(c2ncc(-c3cncn3C)cc2Cl)CCN1C1CCN(Cc2ccc(Cl)cc2)CC1 | human CXCR3 (N-delta 4) (Homo sapiens) | 25 to 100 nM |

* * *

Molecular target: human CXCR3 (N-delta 4) (Homo sapiens)
Construct: CD8 leader (N); Flag tag; expressed in transfected cells; membranes
Sequence (P49682 5-368 limits assumed): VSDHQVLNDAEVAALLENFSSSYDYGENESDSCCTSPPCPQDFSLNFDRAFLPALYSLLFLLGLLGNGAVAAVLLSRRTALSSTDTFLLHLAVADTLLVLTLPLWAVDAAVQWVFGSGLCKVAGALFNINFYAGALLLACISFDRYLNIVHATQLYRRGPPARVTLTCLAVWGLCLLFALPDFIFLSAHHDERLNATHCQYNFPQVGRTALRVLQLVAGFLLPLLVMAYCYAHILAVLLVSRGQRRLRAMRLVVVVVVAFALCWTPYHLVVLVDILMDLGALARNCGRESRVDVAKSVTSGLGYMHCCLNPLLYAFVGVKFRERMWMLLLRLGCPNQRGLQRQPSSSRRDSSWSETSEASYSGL
Assay: Human CXCR3 (N-delta 4) Scintillation Proximity Assay (SPA), [125I] IP-10 binding
Settings: IC50 rating; [125I] IP-10 displacement, Ba/F3-hCXCR3 (N-delta 4) membranes
pIC50: −log10 of the molar value.
Parameter: pIC50. Scope: all listed entries.
MEASURE: pIC50

| GIVEN SMILES | MEASURED |
| --- | --- |
| CC[C@H]1CN(c2ncc(-c3nnc(CO)o3)cc2Cl)CCN1C1CCN(Cc2ccc(Cl)cc2F)CC1 | 7.00 to 7.60 |
| CC[C@H]1CN(c2ncc(-c3ncc[nH]3)cc2Cl)CCN1C1CCN(C(=O)c2ccc(Cl)cc2I)CC1 | > 7.60 |
| CC[C@H]1CN(c2ncc(-c3ncc[nH]3)cc2Cl)CCN1C1CCN(C(=O)c2ccc(-n3cncn3)cc2)CC1 | < 7.00 |

* * *

Molecular target: human CXCR3 (N-delta 4) (Homo sapiens, UniProt P49682)
Construct: CD8 leader (N); Flag tag; expressed in transfected cells; membranes
Sequence (P49682 5-368 limits assumed): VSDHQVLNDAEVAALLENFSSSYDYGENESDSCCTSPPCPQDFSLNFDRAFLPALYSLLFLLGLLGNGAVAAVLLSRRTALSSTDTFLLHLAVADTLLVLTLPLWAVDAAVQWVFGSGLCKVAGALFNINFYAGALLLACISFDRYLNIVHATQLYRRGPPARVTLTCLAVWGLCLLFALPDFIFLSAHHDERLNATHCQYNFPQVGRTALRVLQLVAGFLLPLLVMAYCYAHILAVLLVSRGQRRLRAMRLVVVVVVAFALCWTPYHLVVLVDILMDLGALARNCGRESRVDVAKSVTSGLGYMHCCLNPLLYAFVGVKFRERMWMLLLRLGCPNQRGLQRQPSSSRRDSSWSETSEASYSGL
Assay: Human CXCR3 (N-delta 4) Scintillation Proximity Assay (SPA), [125I] IP-10 binding
Conditions: IC50 rating; [125I] IP-10 displacement, Ba/F3-hCXCR3 (N-delta 4) membranes
pIC50: −log10 of the molar value.
Measured pIC50, listed per entry for reference.
MEASURE: pIC50

| MOLECULE | MEASURED |
| --- | --- |
| CC[C@H]1CN(c2ncc(-c3ncc[nH]3)cc2Cl)CCN1C1CCN([C@@H](C(N)=O)c2ccc(Cl)cc2)CC1 | > 7.60 |
| CC[C@H]1CN(c2ncc(-c3nc(C(O)C(F)(F)F)cn3C(O)C(F)(F)F)cc2Cl)CCN1C1CCN(C(=O)c2ccc(Cl)cc2)CC1 (stereo partly drawn) | < 7.00 |
| CC[C@H]1CN(c2ncc(-c3nnc(COC(C)=O)o3)cc2Cl)CCN1C1CCN(Cc2ccc(Cl)cc2F)CC1 | > 7.60 |
| CC[C@H]1CN(c2ncc(-c3ncc[nH]3)cc2Cl)CCN1C1CCN(Cc2ccc(Cl)cc2/C(N)=N/O)CC1 | > 7.60 |
| CC[C@H]1CN(c2ncc(-c3ncc[nH]3)cc2Cl)CCN1C1CCN([C@@H](C)c2ccc(Cl)cc2)CC1 | > 7.60 |
| CC[C@H]1CN(c2ncc(C3=NCCN3)cc2Cl)CCN1C1CCN(Cc2ccc(C#CCOC)cc2)CC1 | > 7.60 |
| CC[C@H]1CN(c2ncc(-c3n[nH]c(=O)[nH]3)cc2Cl)CCN1C1CCN(Cc2ccc(Cl)cc2F)CC1 | > 7.60 |
| CC[C@H]1CN(c2ncc(-c3ncc[nH]3)cc2Cl)CCN1C1CCN(C(=O)c2ccc(-n3ccnc3)cc2)CC1 | < 7.00 |
| CC[C@H]1CN(c2ncc(-c3ncc[nH]3)cc2Cl)CCN1C1(C)CCN(Cc2ccc(Cl)cc2C(=O)NC)CC1 | 7.00 to 7.60 |
| CC[C@H]1CN(c2ncc(-c3ncc[nH]3)cc2Cl)CCN1C1CCN(CCCC(=O)c2ccc(Cl)cc2)CC1 | > 7.60 |
| CC[C@H]1CN(c2ncc(-c3ncc[nH]3)cc2Cl)CCN1[C@@H]1CCN(Cc2ccc(Cl)cc2C(=O)NC)C[C@H]1O | < 7.00 |
| CC[C@H]1CN(c2ncc(-c3cnc(N)s3)cc2Cl)CCN1C1CCN(C(=O)c2ccc(Cl)cc2)CC1 | < 7.00 |
| CC[C@H]1CN(c2ncc(-c3ncc[nH]3)cc2Cl)CCN1C1CCN(C(=O)c2ccc(Cl)cc2C#N)CC1 | > 7.60 |
| CC[C@H]1CN(c2ncc(C3=NCCN3)cc2Cl)CCN1C1CCN(Cc2ccc(C#N)cc2)CC1 | > 7.60 |
| CC[C@H]1CN(c2ncc(C3=NCCN3)cc2Cl)CCN1C1CCN(Cc2ccc(C#CC(C)(C)O)cc2)CC1 | > 7.60 |
| CC[C@H]1CN(c2ncc(-c3ncc[nH]3)cc2Cl)CCN1C1CCN(C(=O)c2ccc(C(=O)OC)cc2)CC1 | > 7.60 |
| CC[C@H]1CN(c2ncc(-c3ncc[nH]3)cc2Cl)CCN1C1CCN(C(=O)c2ccc(-n3c(C)ccc3C)cc2)CC1 | < 7.00 |
| CC[C@H]1CN(c2ncc(-c3ncc[nH]3)cc2Cl)CCN1C1CCN([C@H](C)c2ccc(Cl)cc2)CC1 | > 7.60 |
| CC[C@H]1CN(c2ncc(-c3ncc[nH]3)cc2Cl)CCN1C1CCN(Cc2ccc(C#CC(C)(C)NC(=O)OC(C)(C)C)cc2)CC1 | > 7.60 |
| CC[C@H]1CN(c2ncc(-c3nccn3CCC(=O)c3ccc(Cl)cc3)cc2Cl)CCN1C1CCN(CCC(=O)c2ccc(Cl)cc2)CC1 | < 7.00 |
| CC[C@H]1CN(c2ncc(-c3ncc[nH]3)cc2Cl)CCN1C1CCN(C(=O)c2ccc(-c3csnn3)cc2)CC1 | 7.00 to 7.60 |
| CC[C@H]1CN(c2ncc(-c3ncc[nH]3)cc2Cl)CCN1C1CCN(C(=O)c2ccc(N3CCCC3=O)cc2)CC1 | < 7.00 |
| Fc1cc(Cl)ccc1CN1CCC(N2CCN(c3ncc(-c4ncc[nH]4)cc3Cl)CC2C2CC2)CC1 (stereo not drawn) | > 7.60 |
| CC[C@H]1CN(c2ncc(C3=NCCN3)cc2Cl)CCN1C1CCN(Cc2ccc(C#CC(C)(C)NS(N)(=O)=O)cc2)CC1 | 7.00 to 7.60 |
| CC[C@H]1CN(c2ncc(-c3ncc[nH]3)cc2Cl)CCN1C1CCN(C(C)c2ccc(Cl)cc2)CC1 (stereo partly drawn) | > 7.60 |
| CC[C@H]1CN(c2ncc(-c3ncc[nH]3)cc2Cl)CCN1C1CCN(Cc2ccc(Cl)cc2C(=O)NC)CC1 | > 7.60 |
| CC[C@H]1CN(c2ncc(C3=NCCN3)cc2Cl)CCN1C1CCN(C(C(=O)OC)c2ccc(Cl)cc2)CC1 (stereo partly drawn) | > 7.60 |
